Value source: ChEMBL document CHEMBL4715916

Target: Cannabinoid receptor 2 (Homo sapiens)
Experiment: Displacement of [3H]-CP55940 from human recombinant cannabinoid CB2 receptor expressed in HEK cell membranes incubated for 1.5 hrs by liquid scintillation counting method
pKi: −log10 of the molar value.
Each entry gets not fulfilled if its pKi stays under 6, and fulfilled if its pKi is 6 or above.

See these solved cases before continuing.
> print(dat)
                         compound.structure          class
1  O=C(c1ccccc1)c1cc(O)c(-c2cccc(CO)c2)c(O)c1  not fulfilled
2    O=C(c1ccccc1)c1cc(O)c(-c2ccncc2)c(O)c1  not fulfilled
3     O=C(c1ccccc1)c1cc(O)c(-c2ccsc2)c(O)c1  not fulfilled
4  O=C(c1cc(O)c(-c2cccc(CO)c2)c(O)c1)c1cccs1  not fulfilled
5  O=C(c1ccccc1)c1cc(O)c(-c2ccnc(Cl)c2)c(O)c1  not fulfilled

Would you kindly look at the next entry?
Ask: State whether the measured pKi reaches 6, counting equality as reaching it, for `O=C(c1ccccc1)c1cc(O)c(-c2cc(C(F)(F)F)cc(C(F)(F)F)c2)c(O)c1`
Result: fulfilled

====

Target: Cannabinoid receptor 1 (Homo sapiens, UniProt P21554)
Sequence (P21554 whole entry): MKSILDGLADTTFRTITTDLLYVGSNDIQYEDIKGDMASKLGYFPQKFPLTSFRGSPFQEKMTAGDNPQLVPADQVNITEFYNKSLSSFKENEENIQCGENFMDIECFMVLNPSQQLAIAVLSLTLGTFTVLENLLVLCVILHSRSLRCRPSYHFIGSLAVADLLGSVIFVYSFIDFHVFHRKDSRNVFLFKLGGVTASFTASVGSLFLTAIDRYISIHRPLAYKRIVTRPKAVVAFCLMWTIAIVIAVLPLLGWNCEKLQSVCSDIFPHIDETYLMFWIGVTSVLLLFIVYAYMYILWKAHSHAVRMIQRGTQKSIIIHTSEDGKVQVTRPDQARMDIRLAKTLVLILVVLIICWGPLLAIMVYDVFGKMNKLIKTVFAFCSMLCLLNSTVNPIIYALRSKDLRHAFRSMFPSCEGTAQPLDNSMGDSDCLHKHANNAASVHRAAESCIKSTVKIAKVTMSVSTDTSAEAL
Assay: Displacement of [3H]-CP55940 from human recombinant cannabinoid CB1 receptor expressed in HEK cell membranes incubated for 1.5 hrs by liquid scintillation counting method
# Ki annotations
Express your answer in µM, writing the number without its unit.

> print(dat)
                         compound.structure                            assayed.system  endpoint.name  number
1  O=C(c1cc(O)c(-c2cc(C(F)(F)F)cc(C(F)(F)F)c2)c(O)c1)c1cccs1  Cannabinoid receptor 1 (Homo sapiens, UniProt P21554)             Ki    3.74

Consider the additional compound presented here.
Ask: Name the reported Ki value associated with the compound `O=C(c1ccccc1)c1cc(O)c(-c2cc(C(F)(F)F)cc(C(F)(F)F)c2)c(O)c1`
Result: 1.9

====

Target: Cannabinoid receptor 2 (Homo sapiens, UniProt P34972)
Sequence (P34972 whole entry): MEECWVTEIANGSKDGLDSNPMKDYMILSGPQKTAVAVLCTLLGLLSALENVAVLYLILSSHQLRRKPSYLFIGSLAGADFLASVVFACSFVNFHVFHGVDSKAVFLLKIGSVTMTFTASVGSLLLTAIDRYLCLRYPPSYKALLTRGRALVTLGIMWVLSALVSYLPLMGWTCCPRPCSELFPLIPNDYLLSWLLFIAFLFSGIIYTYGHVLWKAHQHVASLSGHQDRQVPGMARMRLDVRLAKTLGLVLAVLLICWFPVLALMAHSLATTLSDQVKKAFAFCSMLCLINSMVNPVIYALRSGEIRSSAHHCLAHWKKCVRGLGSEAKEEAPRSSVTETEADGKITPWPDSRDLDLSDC
Experiment: Inverse agonist activity at human recombinant cannabinoid CB2 receptor expressed in HEK cells transfected with CNG assessed as increase in cAMP level measured up to 1 hr by ACTOne membrane potential dye based assay
Format: functional, cell-based
# EC50 annotations
Express your answer in nM, writing the number without its unit.

> print(dat)
                         compound.structure  endpoint.name  number
1  O=C(c1ccccc1)c1cc(O)c(-c2cccc(C(F)(F)F)c2)c(O)c1           EC50     240

Ask: Name the reported EC50 value associated with the compound `O=C(c1cc(O)c(-c2cc(C(F)(F)F)cc(C(F)(F)F)c2)c(O)c1)c1cccs1`
Result: 676

====

# EC50 annotations
Biological target: Cannabinoid receptor 2 (Homo sapiens, UniProt P34972)
Test: Inverse agonist activity at human recombinant cannabinoid CB2 receptor expressed in HEK cells transfected with CNG assessed as increase in cAMP level measured up to 1 hr by ACTOne membrane potential dye based assay
Assay type: functional, cell-based
Express your answer in nM, writing the number without its unit.

Some solved cases for reference:
> print(dat)
                         compound.structure  unit.name  number
1  O=C(c1cc(O)c(-c2cc(Cl)ccc2Cl)c(O)c1)c1cccs1         nM     141
2  O=C(c1ccccc1)c1cc(O)c(-c2cc(F)cc(F)c2)c(O)c1         nM    1700
3  O=C(c1cc(O)c(-c2cccc(C(F)(F)F)c2)c(O)c1)c1cccs1         nM    38.9
4  O=C(c1ccccc1)c1cc(O)c(-c2cc(Cl)ccc2Cl)c(O)c1         nM     363
5  N#Cc1cc(-c2c(O)cc(C(=O)c3ccccc3)cc2O)ccc1F         nM    2820

Consider the additional compound presented here.
Ask: Any idea what EC50 came out for `Cc1cccc(-c2c(O)cc(C(=O)c3ccccc3)cc2O)c1` on Cannabinoid receptor 2 (Homo sapiens, UniProt P34972)?
Result: 1660

====

# pKi annotations
Molecular target: Cannabinoid receptor 1 (Homo sapiens)
Test: Displacement of [3H]-CP55940 from human recombinant cannabinoid CB1 receptor expressed in HEK cell membranes incubated for 1.5 hrs by liquid scintillation counting method
pKi: −log10 of the molar value.

Some solved cases for reference:
> print(dat)
                         compound.structure  result
1  O=C(c1cc(O)c(-c2cc(Cl)ccc2Cl)c(O)c1)c1cccs1  < 5.00
2   Cc1cccc(-c2c(O)cc(C(=O)c3ccccc3)cc2O)c1    5.40
3     O=C(c1ccccc1)c1cc(O)c(-c2ccoc2)c(O)c1  < 5.00
4  O=C(c1ccccc1)c1cc(O)c(-c2ccc3c(c2)OCO3)c(O)c1  < 5.00
5  O=C(c1ccccc1)c1cc(O)c(-c2ccc3c(c2)OCCO3)c(O)c1  < 5.00

Ask: Any idea what pKi came out for `N#Cc1cc(-c2c(O)cc(C(=O)c3ccccc3)cc2O)ccc1F` on Cannabinoid receptor 1 (Homo sapiens)?
Result: < 5.00

Ask: Can you handle `O=C(c1ccccc1)c1cc(O)c(-c2cccc(CO)c2)c(O)c1` next?
Result: < 5.00

====

# Emax annotations
Biological target: Cannabinoid receptor 2 (Homo sapiens)
Experiment: Inverse agonist activity at human recombinant cannabinoid CB2 receptor expressed in HEK cells transfected with CNG assessed as increase in cAMP level measured up to 1 hr by ACTOne membrane potential dye based assay relative to control
Type: functional, cell-based
Details: filed as inverse agonist, time hrs <=1
Express your answer in %, writing the number without its unit.

Some solved cases for reference:
> print(dat)
                         compound.structure  endpoint.name  number
1  O=C(c1ccccc1)c1cc(O)c(-c2cc(Cl)ccc2Cl)c(O)c1           Emax    66.5
2  O=C(c1ccccc1)c1cc(O)c(-c2cc(F)cc(F)c2)c(O)c1           Emax      63
3    Cc1cccc(-c2c(O)cc(C(=O)c3cccs3)cc2O)c1           Emax    51.7
4  O=C(c1cc(O)c(-c2cc(C(F)(F)F)cc(C(F)(F)F)c2)c(O)c1)c1cccs1           Emax    49.7
5  O=C(c1ccccc1)c1cc(O)c(-c2cccc(C(F)(F)F)c2)c(O)c1           Emax      66

Ask: Name the reported Emax value associated with the molecule `Cc1cccc(-c2c(O)cc(C(=O)c3ccccc3)cc2O)c1`
Result: 40.3

Ask: Can you handle `N#Cc1cc(-c2c(O)cc(C(=O)c3ccccc3)cc2O)ccc1F` next?
Result: 52.3

====

# Ratio annotations
Target: Cannabinoid receptor 2 (Homo sapiens)
Assay: Inverse agonist activity at cannabinoid CB2 receptor in human U2OS cells assessed as emission ratio using CCF4/AM as substrate preincubated for 5 hrs followed by substrate addition and measured after 2 hrs by Tango assay; further: test concentration or dose not given here
Assay type: cell-based
Settings: filed as inverse agonist, time 7.0 hrs
Keep it simple and answer with nothing but the number.

Some solved cases for reference:
> print(dat)
                         compound.structure  endpoint.name  number
1  O=C(c1ccccc1)c1cc(O)c(-c2cccc(C(F)(F)F)c2)c(O)c1          Ratio    1.41
2  O=C(c1cc(O)c(-c2cc(C(F)(F)F)cc(C(F)(F)F)c2)c(O)c1)c1cccs1          Ratio    0.94
3  O=C(c1ccccc1)c1cc(O)c(-c2cc(F)cc(F)c2)c(O)c1          Ratio    2.22
4   Cc1cccc(-c2c(O)cc(C(=O)c3ccccc3)cc2O)c1          Ratio     2.3
5  O=C(c1cc(O)c(-c2cc(Cl)ccc2Cl)c(O)c1)c1cccs1          Ratio    1.46
6  O=C(c1ccccc1)c1cc(O)c(-c2cc(Cl)cc(Cl)c2)c(O)c1          Ratio    0.66

Ask: Name the reported Ratio value associated with the compound `O=C(c1ccccc1)c1cc(O)c(-c2cc(C(F)(F)F)cc(C(F)(F)F)c2)c(O)c1`
Result: 0.91

Ask: Can you handle `O=C(c1ccccc1)c1cc(O)c(-c2cc(Cl)ccc2Cl)c(O)c1` next?
Result: 1.03

Ask: Can you handle `Cc1cccc(-c2c(O)cc(C(=O)c3cccs3)cc2O)c1` next?
Result: 2.68

Ask: Can you handle `O=C(c1cc(O)c(-c2cccc(C(F)(F)F)c2)c(O)c1)c1cccs1` next?
Result: 1.19

====

Molecular target: Cannabinoid receptor 2 (Homo sapiens, UniProt P34972)
Assay: Inverse agonist activity at human recombinant cannabinoid CB2 receptor expressed in HEK cells transfected with CNG assessed as increase in cAMP level measured up to 1 hr by ACTOne membrane potential dye based assay relative to control
Assay type: functional, cell-based
Conditions: time hrs <=1
Calls of active or inactive are those of the source. The rule behind the calls is not given here.
Endpoint name: Emax

Some solved cases for reference:
> print(dat)
                         compound.structure  endpoint.name    result
1  O=C(c1ccccc1)c1cc(O)c(-c2cc(C(F)(F)F)cc(C(F)(F)F)c2)c(O)c1           Emax     22.9%
2  O=C(c1ccccc1)c1cc(O)c(-c2ccnc(F)c2)c(O)c1           Emax  inactive
3  O=C(c1ccccc1)c1cc(O)c(-c2cccc(CO)c2)c(O)c1           Emax  inactive
4     O=C(c1ccccc1)c1cc(O)c(-c2ccsc2)c(O)c1           Emax  inactive
5    O=C(c1ccccc1)c1cc(O)c(-c2ccncc2)c(O)c1           Emax  inactive

Ask: Any idea what Emax came out for `O=C(c1cc(O)c(-c2ccncc2)c(O)c1)c1cccs1` on Cannabinoid receptor 2 (Homo sapiens, UniProt P34972)?
Result: inactive

Ask: Can you handle `O=C(c1ccccc1)c1cc(O)c(-c2ccnc(Cl)c2)c(O)c1` next?
Result: inactive

Ask: Can you handle `O=C(c1ccccc1)c1cc(O)c(-c2ccoc2)c(O)c1` next?
Result: -18.5%

Ask: Can you handle `O=C(c1cc(O)c(-c2cccc(CO)c2)c(O)c1)c1cccs1` next?
Result: inactive

Ask: Can you handle `O=C(c1ccccc1)c1cc(O)c(-c2ccc3c(c2)OCO3)c(O)c1` next?
Result: inactive
